These data points were gathered from patent US6951843B2.

- system-tested: Lys-gingipain (KGP) (Porphyromonas gingivalis, UniProt B2RLK2)
- experimental-context: compound concentration 10^−6 mol/l
value-type: Enzyme inhibitory activity (%) KGP
One number for each entry, in %.

Observe how each entry below is paired with its result.
compound-string | Enzyme inhibitory activity (%) KGP
CNC(=O)CC[C@H](NC(=O)OCc1ccccc1)C(=O)N[C@@H](CCCCN)C(=O)C(=O)NCc1ccccc1.Cl | 100.0
CN(C)C(=O)[C@H](CC(N)=O)NC(=O)C(=O)[C@H](CCCCN)NC(=O)[C@H](CCC(=O)O)NC(=O)OCc1ccccc1.Cl | 99.9
Cl.NCCCC[C@H](NC(=O)[C@H](CCC(=O)O)NC(=O)OCc1ccccc1)C(=O)C(=O)NCc1ccccc1 | 99.7
CN(C)C(=O)CC[C@H](NC(=O)OCc1ccccc1)C(=O)N[C@@H](CCCCN)C(=O)C(=O)NCc1ccccc1.Cl | 100.0
CN(C)NC(=O)CC[C@H](NC(=O)OCc1ccccc1)C(=O)N[C@@H](CCCCN)C(=O)C(=O)NCc1ccccc1.Cl.Cl | 100.0

Batch of 2 compounds: report Enzyme inhibitory activity (%) KGP for each.
1. Cl.NCCCC[C@H](NC(=O)[C@H](CCC(=O)O)NC(=O)OCc1ccccc1)C(=O)C(=O)Nc1ccccc1
2. Cl.Cl.NCCCC[C@H](NC(=O)[C@H](CCC(=O)N1CCNCC1)NC(=O)OCc1ccccc1)C(=O)C(=O)NCc1ccccc1

Output:
99.6
100.0
